Dear all, this message contains Ki results, target or system RgpB (Porphyromonas gingivalis, UniProt P95493).

Measured Ki of N=C(N)c1ccc(CC2CCCC(Cc3ccc(C(=N)N)cc3)C2=O)cc1 (stereo not drawn) : 0.51 µM

Measured Ki of N=C(N)c1ccc(OCCCCCOc2ccc(C(=N)N)cc2)cc1 : 40.3 µM

Measured Ki of N=C(N)c1ccccc1 : 277 µM

---

What Ki was measured for each of the following?
Report the figure in µM without appending any unit label.

Entry N=C(N)c1ccc(OCCCCCOc2ccc(C(=N)N)cc2)cc1 ; assay system HRgpA (Porphyromonas gingivalis, UniProt P28784); Ki recorded at 107

Entry N=C(N)c1ccccc1 ; assay system HRgpA (Porphyromonas gingivalis, UniProt P28784); Ki recorded at 536

Entry N=C(N)c1ccc(CC2CCCC(Cc3ccc(C(=N)N)cc3)C2=O)cc1 (stereo not drawn) ; assay system HRgpA (Porphyromonas gingivalis, UniProt P28784); Ki recorded at 2.9

---

Biological target: Lys-gingipain (Porphyromonas gingivalis, UniProt P72197)
readoutKind: Ki

Measured Ki of N=C(N)c1ccccc1 [benzamidine] : > 1000 µM

Measured Ki of N=C(N)c1ccc(CC2CCCC(Cc3ccc(C(=N)N)cc3)C2=O)cc1 (stereo not drawn) [2,6-bis-(4-amidinobenzyl)-cyclohexanone] : > 1000 µM

Measured Ki of N=C(N)c1ccc(OCCCCCOc2ccc(C(=N)N)cc2)cc1 [pentamidine] : > 1000 µM
